# Measurement notes: NCI Yeast Anticancer Drug Screen. Data for the cln2 rad14 strain (AID 165);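 further: 0% = growth equal to vehicle treated cultures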
# Experimental setup: S. cerevisiae cln2 rad14 strain, at 50.0 µM, hits give high values
About 79,000 compounds went through this panel and 15% of them were active in at least one assay; those are over-represented in the sample as a whole.
Readout label: growth inhibition (%)
Numbers only, in %.

Consider the worked cases shown below.
[[record]]
compound = "S=C(S)N(Cc1ccccc1)Cc1ccccc1 (tested in a mixture with another compound)"
uom = "%"
test_value = -18.8

[[record]]
compound = "OCCN(CCO)c1ncnc2c1ncn2CCc1ccccc1"
uom = "%"
test_value = -16

[[record]]
compound = "CCCc1nc2ccc(C)cc2[nH]1"
uom = "%"
test_value = -11.3

[[record]]
compound = "CN1c2ccccc2Nc2cc(C#N)ccc21"
uom = "%"
test_value = -30.4

[[record]]
compound = "O=c1ccn2n1Cc1ccccc1C2"
uom = "%"
test_value = 13.3

[[record]]
compound = "O=C1OC(C(O)CO)C(C(O)CO)OC1=O (configuration not stated)"
uom = "%"
test_value = -7.35

[[record]]
compound = "CCN(CC)CCCCCOC(=O)c1cccc(N)c1"
uom = "%"
test_value = -45.9

[[record]]
compound = "Cc1cc(Cl)ccc1C1OC(=O)c2c1ccc1ccccc21 (configuration not stated)"
uom = "%"
test_value = 15.6

[[record]]
compound = "Nn1c(C23CC4CC(CC(C4)C2)C3)n[nH]c1=S"
uom = "%"
test_value = -6.85

[[record]]
compound = "O=C1C(Br)=C(Oc2ccccc2)C(=O)C(Br)=C1Oc1ccccc1"
uom = "%"
test_value = 1.05


Provide the reported growth inhibition of each entry below, same order.
1. Cc1ccc(S(=O)(=O)N/N=C2/C(=O)NC(=O)C(=O)C2c2nc3ccccc3s2)cc1 (configuration not stated)
2. Nc1nc(NCCCc2ccccc2)c(N)c(=O)[nH]1
3. CCc1ccc(NC(=O)Nc2ccc(Cl)cc2)cc1
4. Cc1ccc(C(=O)NC(C)C)cc1N=NN(C)C
5. OC(CC1CCCCN1)c1ccc2c(c1)oc1ccccc12 (configuration not stated)
6. CC(=O)Nc1cc2c(cc1Br)-c1ccccc1C2=O
7. Cc1nc(=O)n2c(c1C(=O)Nc1ccc(Cl)cc1)NCC2

Solution:
-19.1
-3.1
-16.9
9.7
56.2
-31.7
-37.9
